Please respond with reported IC50 for every item in the list.
- Tested on: A2780
- measurement.protocol: Cytotoxicity against human A2780 cells after 96 hrs by MTT assay
- Assay type: functional, cell-based
- condition.description: A2780, 96 h

What the record says about CC[C@H](CC[C@@H](C)[C@H]1CC[C@H]2[C@@H]3CC=C4C[C@@H](O[C@@H]5O[C@H](CO)[C@@H](O)[C@H](O)[C@H]5O)CC[C@]4(C)[C@H]3CC[C@]12C)C(C)C [SITOGLUSIDE] : IC50 is > 10 µg/mL

What the record says about COc1cc([C@H]2c3c(cc(OC)c(O)c3OC)C[C@@H](CO)[C@@H]2CO[C@@H]2O[C@H](CO)[C@@H](O)[C@H](O)[C@H]2O)cc(OC)c1O : IC50 is > 10 µg/mL

What the record says about COc1cc(O[C@@H]2O[C@H](CO)[C@@H](O)[C@H](O)[C@H]2O)cc(OC)c1O [KOABURASIDE] : IC50 is > 10 µg/mL

What the record says about CCCCCCCCCCCCCC1=C(O)/C(=C2\C(=O)Oc3c2cc(O)c(O)c3CCCCCCCCCCCCC)OC1=O : IC50 is > 10 µg/mL

What the record says about CCCCCCCC/C=C\CCCCCCCc1cc(O)cc(O)c1 : IC50 is 1060 nM

What the record says about CCCCCCCCCCCCCC1=C(O)C(=O)C=C(NCCCC(=O)O)C1=O : IC50 is > 10 µg/mL

What the record says about CCCCCCCCCCCCCCCc1cc(O)cc(O)c1 [CARDOL] : IC50 is 1310 nM

What the record says about COc1cc(O)cc(OC)c1O[C@@H]1O[C@H](CO)[C@@H](O)[C@H](O)[C@H]1O [LEONURISIDE] : IC50 is > 10 µg/mL

What the record says about Oc1cc(O)c2c(c1)O[C@H](c1ccc(O)c(O)c1)[C@@H](O)C2 [CIANIDANOL] : IC50 is > 10 µg/mL

----------
- System: Bel-7402
- measurement.protocol: Cytotoxicity against human Bel-7402 cells after 96 hrs by MTT assay
- Assay type: functional, cell-based
- condition.description: Bel-7402, 96 h
Please respond with reported IC50 for every item in the list.

What the record says about CCCCCCCCCCCCCC1=C(O)/C(=C2\C(=O)Oc3c2cc(O)c(O)c3CCCCCCCCCCCCC)OC1=O : IC50 is > 10 µg/mL

What the record says about COc1cc(O)cc(OC)c1O[C@@H]1O[C@H](CO)[C@@H](O)[C@H](O)[C@H]1O [LEONURISIDE] : IC50 is > 10 µg/mL

What the record says about CC[C@H](CC[C@@H](C)[C@H]1CC[C@H]2[C@@H]3CC=C4C[C@@H](O[C@@H]5O[C@H](CO)[C@@H](O)[C@H](O)[C@H]5O)CC[C@]4(C)[C@H]3CC[C@]12C)C(C)C [SITOGLUSIDE] : IC50 is > 10 µg/mL

What the record says about Oc1cc(O)c2c(c1)O[C@H](c1ccc(O)c(O)c1)[C@@H](O)C2 : IC50 is > 10 µg/mL

What the record says about COc1cc(O[C@@H]2O[C@H](CO)[C@@H](O)[C@H](O)[C@H]2O)cc(OC)c1O [KOABURASIDE] : IC50 is > 10 µg/mL

What the record says about CCCCC/C=C\C/C=C\CCCCCCCc1cc(O)cc(O)c1 : IC50 is 1910 nM

What the record says about CCCCCCCC/C=C\CCCCCCCc1cc(O)cc(O)c1 : IC50 is 1070 nM

What the record says about CC[C@H](CC[C@@H](C)[C@H]1CC[C@H]2[C@@H]3CC=C4C[C@@H](O)CC[C@]4(C)[C@H]3CC[C@]12C)C(C)C : IC50 is > 10 µg/mL

What the record says about CCCCCCCCCCCCCCCc1cc(O)cc(O)c1 : IC50 is 1930 nM

What the record says about CCCCCCCCCCCCCC1=C(O)C(=O)C=C(O)C1=O : IC50 is 1460 nM

What the record says about CCCCCCCCCCCCCC1=C(O)C(=O)C=C(NCCCC(=O)O)C1=O : IC50 is > 10 µg/mL

What the record says about COc1cc([C@H]2c3c(cc(OC)c(O)c3OC)C[C@@H](CO)[C@@H]2CO[C@@H]2O[C@H](CO)[C@@H](O)[C@H](O)[C@H]2O)cc(OC)c1O : IC50 is > 10 µg/mL

What the record says about CCCCCc1cc(O)cc(OC)c1 : IC50 is > 10 µg/mL

What the record says about CC[C@@]1(O)C(=O)OCc2c1cc1n(c2=O)Cc2cc3c(CN(C)C)c(O)ccc3nc2-1 : IC50 is 1400 nM

----------
- System: A2780
- measurement.protocol: Cytotoxicity against human A2780 cells after 96 hrs by MTT assay
- Type: functional, cell-based
- condition.description: A2780, 96 h
readout.type: IC50 (nM)
Give a bare numeral; the unit nM is implied.

Here CCCCCCCCCCCCCC1=C(O)C(=O)C=C(O)C1=O was tested on A2780, and its IC50 came to 1820

Here CCCCC/C=C\C/C=C\CCCCCCCc1cc(O)cc(O)c1 was tested on A2780, and its IC50 came to 1570

Here CC[C@@]1(O)C(=O)OCc2c1cc1n(c2=O)Cc2cc3c(CN(C)C)c(O)ccc3nc2-1 was tested on A2780, and its IC50 came to 1200

----------
- Tested on: BGC-823
- measurement.protocol: Cytotoxicity against human BGC-823 cells after 96 hrs by MTT assay
- Type: functional, cell-based
- condition.description: BGC-823, 96 h
readout.type: IC50 (nM)
Give a bare numeral; the unit nM is implied.

What the record says about CC[C@@]1(O)C(=O)OCc2c1cc1n(c2=O)Cc2cc3c(CN(C)C)c(O)ccc3nc2-1 : IC50 is 3800

What the record says about CCCCC/C=C\C/C=C\CCCCCCCc1cc(O)cc(O)c1 : IC50 is 1790

What the record says about CCCCCCCCCCCCCCCc1cc(O)cc(O)c1 : IC50 is 1740

What the record says about CCCCCCCC/C=C\CCCCCCCc1cc(O)cc(O)c1 : IC50 is 1430
